TESTED SYSTEM: 5-hydroxytryptamine receptor 2B (Homo sapiens, UniProt P41595)
Sequence (P41595 whole entry): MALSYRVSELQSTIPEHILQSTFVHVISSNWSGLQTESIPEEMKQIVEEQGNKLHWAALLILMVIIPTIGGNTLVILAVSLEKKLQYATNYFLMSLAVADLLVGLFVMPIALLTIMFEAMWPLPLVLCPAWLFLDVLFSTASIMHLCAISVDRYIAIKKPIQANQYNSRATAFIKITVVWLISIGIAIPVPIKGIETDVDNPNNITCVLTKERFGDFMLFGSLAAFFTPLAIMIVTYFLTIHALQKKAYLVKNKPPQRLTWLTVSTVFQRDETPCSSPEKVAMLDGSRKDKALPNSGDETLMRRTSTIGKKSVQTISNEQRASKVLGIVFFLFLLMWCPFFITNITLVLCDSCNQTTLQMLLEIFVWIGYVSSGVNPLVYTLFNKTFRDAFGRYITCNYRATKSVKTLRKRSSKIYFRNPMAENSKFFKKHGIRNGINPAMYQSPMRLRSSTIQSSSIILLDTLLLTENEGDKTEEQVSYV
EXPERIMENTAL PROTOCOL: Intrinsic activity at human recombinant 5HT2B receptor expressed in HEK293E cells by FLIPR assay at 3 uM relative to control
Assay type: cell-based
ASSAY ENDPOINT: Intrinsic activity

May I ask what Intrinsic activity has been recorded for O=C1NC2CNCCN2c2cccc(Cl)c21 (centres undefined) ?
0

Endpoint output: Intrinsic activity of Cc1ccc2c(c1)N1CCNCC1NC2=O (single isomer, unassigned) . Value?
0

Which Intrinsic activity value is on record for Clc1cccc(N2CCNCC2)c1 ?
0.4

Fill blank: measured Intrinsic activity of the compound Cc1cccc2c1C(=O)NC1CCNCCN21 (centres undefined) is ____.
0.44

Can you share its Intrinsic activity? I mean this compound: O=C1NC2CCNCCN2c2ccccc21 (single isomer, unassigned)
0.6

Need Intrinsic activity of Cc1cccc2c1C(=O)NC1CNCCN21 (single isomer, unassigned; (+)) , thanks.
0

So what's the measured Intrinsic activity for this one? O=C1NC2CCNCCN2c2cccc(Cl)c21 (single isomer, unassigned)
0.5

If you can, please state the reported Intrinsic activity value of Cc1ccc2c(c1)C(=O)NC1CNCCN21 (single isomer, unassigned) .
0

Field request: Intrinsic activity | item: Cc1ccc2c(c1)N1CCNCCC1NC2=O (stereo in doubt; (+)-3c)
0
